# System: cyBCMA
# assay.name: Kinetics and affinity of cyBCMA/human IgG interactions by SPR (Bio-Rad Proteon XPR36)
# Type: binding, cynomolgus
# experimental.context: 25° C.
Each entry below carries its reported ka (1/Ms) cyBCMA @ 25° C..
Record the value in M⁻¹ s⁻¹, omitting the unit from your answer.

>  <molecule>
L1.LGF/L3.KW/H3.AP: anti-BCMA antibody (antibody, V domains shown) VH: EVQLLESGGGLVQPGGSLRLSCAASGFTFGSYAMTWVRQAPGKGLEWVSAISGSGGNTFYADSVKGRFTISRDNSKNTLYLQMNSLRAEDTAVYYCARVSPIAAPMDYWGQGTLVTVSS VL: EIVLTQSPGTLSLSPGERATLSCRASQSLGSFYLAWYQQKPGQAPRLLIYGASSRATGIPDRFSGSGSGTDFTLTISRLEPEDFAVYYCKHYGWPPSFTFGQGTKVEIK

>  <quantity.name>
ka (1/Ms) cyBCMA @ 25° C.

>  <value.observed>
554000

$$$$

Could you share which ka (1/Ms) cyBCMA @ 25° C. value was measured for L1.GDF/L3.KW/H3.AL: anti-BCMA antibody (antibody, V domains shown) VH: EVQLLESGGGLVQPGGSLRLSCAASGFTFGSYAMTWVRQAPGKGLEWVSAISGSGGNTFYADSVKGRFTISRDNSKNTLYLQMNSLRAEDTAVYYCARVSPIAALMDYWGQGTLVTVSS VL: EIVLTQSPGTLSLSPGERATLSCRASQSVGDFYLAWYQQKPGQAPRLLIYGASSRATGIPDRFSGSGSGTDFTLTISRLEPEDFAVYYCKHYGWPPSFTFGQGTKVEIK ?
318000
